Assign IC50 to each entry below.
target: JAK1-JH2 domain (Homo sapiens, UniProt P23458); construct: JAK1-JH2 domain or TYK2-JH2 domain enzyme in assay buffer; assay: Binding activity test for JH2 domain of JAK1 (Tb-antibody/tracer FRET); conditions: JH2 domain enzyme; 60 min at 25°C, then 4°C overnight; read-out: JAK1 JH2 Binding IC50
Sequence (P23458 583-855 limits assumed): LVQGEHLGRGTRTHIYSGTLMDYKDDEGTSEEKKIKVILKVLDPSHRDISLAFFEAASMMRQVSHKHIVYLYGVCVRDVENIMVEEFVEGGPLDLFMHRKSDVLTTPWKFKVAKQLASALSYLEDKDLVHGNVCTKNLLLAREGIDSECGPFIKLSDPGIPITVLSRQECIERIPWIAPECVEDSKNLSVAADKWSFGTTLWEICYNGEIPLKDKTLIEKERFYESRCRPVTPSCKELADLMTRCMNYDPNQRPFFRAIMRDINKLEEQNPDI
Give the number; µM is assumed, so skip it.

input: Fill in: IC50 of [2H]C([2H])([2H])NC(=O)c1cnc(NC(=O)C2CC23CC3)cc1Nc1cnn2ccc([C@H](O)C(F)(F)F)c(OC)c12 (single isomer, unassigned) [Example 32B] is ___
output: 0.0115

input: Fill in: IC50 of [2H]C([2H])([2H])NC(=O)c1cnc(NC(=O)C2CC2)cc1Nc1cnn2ccc(CC#N)c(OC)c12 is ___
output: 0.00163

====

assay: Pharmacokinetic study in rats; type: in vivo; conditions: rat, plasma; Sprague-Dawley rats, intravenous, 3 mg/kg, solution
OBSERVABLE: clearance (mL/min/kg)
Give the number; mL/min/kg is assumed, so skip it.

input: Fill in: clearance of [2H]C([2H])([2H])NC(=O)c1cnc(NC(=O)C2CC2)cc1Nc1nn(C)c2ccc([C@H](OC([2H])([2H])[2H])C(F)(F)F)c(OC)c12 [Example 55A] is ___
output: 13.6

====

target: TYK2-JH2 domain (Homo sapiens); construct: JAK1-JH2 domain or TYK2-JH2 domain enzyme in assay buffer; assay: Binding activity test for JH2 domain of TYK2 (Tb-antibody/tracer FRET); settings: JH2 domain enzyme; 60 min at 25°C, then 4°C overnight; read-out: TYK2 JH2 Binding IC50
Sequence (P29597 589-875 limits assumed): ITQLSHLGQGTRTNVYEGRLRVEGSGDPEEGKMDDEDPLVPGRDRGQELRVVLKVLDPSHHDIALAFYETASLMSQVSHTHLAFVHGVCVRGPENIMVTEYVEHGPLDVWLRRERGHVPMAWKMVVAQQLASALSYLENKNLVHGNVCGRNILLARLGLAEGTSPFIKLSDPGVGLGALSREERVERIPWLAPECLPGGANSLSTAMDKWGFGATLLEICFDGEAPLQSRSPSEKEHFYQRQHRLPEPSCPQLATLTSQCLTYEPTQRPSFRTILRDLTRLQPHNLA
Assign IC50 to each entry below.
Give the number; nM is assumed, so skip it.

input: Fill in: IC50 of COc1c([C@H](OC)C(F)(F)F)ccn2ncc(Nc3cc(NC(=O)C4CC4)ncc3OCC#N)c12 is ___
output: 68.3

input: Fill in: IC50 of [2H]C([2H])([2H])NC(=O)c1cnc(NC(=O)C2CC2)cc1Nc1nn(C)c2ccc([C@H](OC)C(F)(F)F)c(OC)c12 [Example 46A] is ___
output: 0.074

input: Fill in: IC50 of [2H]C([2H])([2H])NC(=O)c1cnc(NC(=O)C2CC2)cc1Nc1cnn2ccc(CO)c(OC)c12 is ___
output: 0.185

input: Fill in: IC50 of [2H]C([2H])([2H])O[C@@H](c1ccn2ncc(Nc3cc(NC(=O)C4CC4)ncc3C(=O)OC)c2c1OC)C(F)(F)F is ___
output: 0.221

input: Fill in: IC50 of CCn1nc(Nc2cc(NC(=O)C3CC3)ncc2C(=O)OC)c2c(OC)c(C(OC)C(F)(F)F)ccc21 (single isomer, unassigned) [Example 66A] is ___
output: 2.81

input: Fill in: IC50 of [2H]C([2H])([2H])NC(=O)c1cnc(NC(=O)C2CC2)cc1Nc1cnn2ccc(CC#N)c(OC)c12 is ___
output: 0.13

input: Fill in: IC50 of COC(=O)c1cnc(NC(=O)C2CC2)cc1Nc1nn(C)c2ccc([C@@H](O)C(F)(F)F)c(OC)c12 [Example 48B] is ___
output: 1.68

input: Fill in: IC50 of [2H]C([2H])([2H])NC(=O)c1cnc(NC(=O)C2CC2)cc1Nc1cnn2ccc(C(=O)OC)c(OC)c12 is ___
output: 0.482

input: Fill in: IC50 of [2H]C([2H])([2H])NC(=O)c1cnc(NC(=O)C2CC2)cc1Nc1nn(C)c2ccc([C@@H](OC)C(F)(F)F)c(OC)c12 [Example 46B] is ___
output: 0.18

input: Fill in: IC50 of [2H]C([2H])([2H])NC(=O)c1cnc(NC(=O)C2CC2)cc1Nc1nn(C)c2ccc([C@H](OC)C(F)(F)F)c(OC([2H])([2H])[2H])c12 is ___
output: 0.071

input: Fill in: IC50 of [2H]C([2H])([2H])NC(=O)c1cnc(Nc2ccc(F)cn2)cc1Nc1nn(C)c2ccc([C@H](OC)C(F)(F)F)c(OC)c12 is ___
output: 0.171

input: Fill in: IC50 of COC(=O)c1cnc(Nc2ccc(Cl)cn2)cc1Nc1nn(C)c2ccc([C@H](OC)C(F)(F)F)c(OC)c12 is ___
output: 0.384

input: Fill in: IC50 of [2H]C([2H])([2H])NC(=O)c1cnc(NC(=O)C2CC23CC3)cc1Nc1cnn2ccc([C@H](O)C(F)(F)F)c(OC)c12 (stereo partly shown) [Example 32] is ___
output: 0.171

Just for reference, patent EP4813463A2 is where these values come from.
